# reported composite z-score; entries follow
Test system: Neuregulin-1 EGF-like domain
experimental.details: binders of neuregulin-1 EGF-like domain, primary screen, biochemical, small-molecule microarray, 635 nm fluorescence (AID 1081);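 also: binding of the protein to compounds printed on small-molecule microarray slides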
condition.notes: small-molecule microarray binding, higher = more signal
Hey, just send me the number, nothing else.

O=C1C2C=CC(C(O)C(c3ccccc3)c3ccccc3)N(Nc3ccccc3)C2C(=O)N1c1ccccc1 (stereo not drawn) = 1.17
CC(C)C[C@@H]1NC(=O)[C@@H]2C[C@H](C(=O)NCCCC[N+](C)(C)C)[C@H](c3ccc(O)cc3)N2C1=O = 1.32
O=C(NCCO)C1=C[C@H](Oc2ccccc2I)[C@@H](O)[C@H](NCc2ccc(F)cc2)C1 = -1.68

Now, please, on to the next compound.
Lookup: Return reported composite z-score; argument: C=CCC(OC(C)=O)[C@@H]1[C@@H](N(Cc2cccc3ccccc23)C(=O)c2ccc(-c3ccccc3)cc2)c2cc(OCCCO)ccc2N1C(=O)c1ccc2ccccc2n1 (stereo partly drawn)
Found: 0.037

----------
measured.target: Follistatin (Homo sapiens) (UniProt P19883)
Sequence (P19883 whole entry, looked up): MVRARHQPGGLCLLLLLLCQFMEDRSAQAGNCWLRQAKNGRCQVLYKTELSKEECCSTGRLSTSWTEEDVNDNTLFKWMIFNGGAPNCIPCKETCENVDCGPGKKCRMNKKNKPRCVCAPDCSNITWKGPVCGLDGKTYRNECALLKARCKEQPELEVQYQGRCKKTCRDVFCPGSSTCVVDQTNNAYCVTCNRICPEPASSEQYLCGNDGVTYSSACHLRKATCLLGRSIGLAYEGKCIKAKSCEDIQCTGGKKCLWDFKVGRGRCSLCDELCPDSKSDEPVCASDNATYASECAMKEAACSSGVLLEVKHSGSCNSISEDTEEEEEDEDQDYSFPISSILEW
experimental.details: follistatin binders on small-molecule microarrays, primary screen, biochemical, small-molecule microarray, 635/667 nm fluorescence (AID 1132)
condition.notes: FST binding, 635 nm fluorescence, higher = more signal
Outcome: true for composite z-score of at least -0.1; false for anything lower.

Lookup: Is it the case that `COc1ccccc1CN1C(=O)c2ccccc2[C@](Cc2ccccc2I)(C(=O)NCCCN(C)C)[C@@H]1c1ccc(CO)cc1` has composite z-score reaching or exceeding -0.1?
Found: true

Lookup: Is it the case that `CCCC=C(CCC)[C@@H](NC(=O)c1ccccc1)c1ccc(C(=O)OC)cc1` has composite z-score reaching or exceeding -0.1?
Found: true

Lookup: Is it the case that COc1cc2c(cc1O)C(c1ccc(CN3CCCC3)cc1)N(Cc1ccc([N+](=O)[O-])o1)CC2 (stereo not given) has composite z-score reaching or exceeding -0.1?
Found: false

Lookup: Is it the case that `CCOC(=O)C1=CC[C@@H](c2ccccc2)N(S(=O)(=O)C[Si](C)(C)C)[C@H]1c1ccccc1` has composite z-score reaching or exceeding -0.1?
Found: true

----------
experimental.details: cell viability in Huh7 cells, primary screen, cytotoxicity control for HCV replication inhibitor project, CellTiter-Glo luminescence, basal, 48 h (AID 1143);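 also: Huh7 hepatoma cells carrying a hepatitis C replication reporter with no stimulus; test concentration not given here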
condition.notes: Huh7 HCV replicon, higher = more signal, called active from +8 up or from −8 down
Outcome: satisfied for z-score of at least -3; not satisfied for anything lower.

COC(=O)c1c(CC[C@@H](CO)NC(=O)N[C@@H](Cc2ccccc2)Cn2cc(-c3cncn3C)nn2)oc(C(C)=O)c1C(=O)OC = not satisfied

Lookup: Is it the case that O=C1C2C=CC(C(O)c3cccc(O)c3)N(Nc3ccccc3F)C2C(=O)N1c1ccccc1 (stereo not given) has z-score reaching or exceeding -3?
Found: not satisfied

Lookup: Is it the case that `C=CC[C@]1(C(=O)NCc2ccccc2)COC(c2ccc(OCCCO)cc2)=N1` has z-score reaching or exceeding -3?
Found: not satisfied

Lookup: Is it the case that `COC(=O)[C@@]1(Cc2ccccc2)[C@@H]2[C@@H](CC(=O)[C@H]2CC(=O)C(=O)N(C)C)CN1C(=O)c1ccccc1` has z-score reaching or exceeding -3?
Found: satisfied

Lookup: Is it the case that `CCCCNC(=O)c1ccc(C#C[Si](C)(C)C)c(OC(C)=O)c1` has z-score reaching or exceeding -3?
Found: satisfied

Lookup: Is it the case that `COCCCNC(=O)[C@@H]1c2ccccc2C(=O)N(Cc2cc(C(F)(F)F)cc(C(F)(F)F)c2)[C@H]1c1ccc(CO)cc1` has z-score reaching or exceeding -3?
Found: satisfied

Lookup: Is it the case that `C=CC[C@]1(C(=O)NCCCOC)N=C(c2ccc(OCCCO)cc2)O[C@H]1c1ccccc1` has z-score reaching or exceeding -3?
Found: satisfied

Lookup: Is it the case that `COc1ccc(C#Cc2ccc3c(c2)[C@]2(C(=O)N3)[C@H](C(=O)Nc3nc4ccccc4s3)[C@H]3C(=O)O[C@H](c4ccccc4)[C@H](c4ccccc4)N3[C@@H]2c2ccc(OCCO)cc2)cc1` has z-score reaching or exceeding -3?
Found: satisfied

Lookup: Is it the case that `O=C1O[C@H](c2ccccc2)[C@H](c2ccccc2)N2[C@H]1[C@@H](C(=O)NC[C@H](O)c1ccccc1)[C@]1(C(=O)Nc3ccc(C#CCCO)cc31)[C@H]2c1ccccc1OCCO` has z-score reaching or exceeding -3?
Found: satisfied

Lookup: Is it the case that COc1ccc(NN2C(C(O)c3cc(C(F)(F)F)cc(C(F)(F)F)c3)C=CC3C(=O)N(C4CCCCC4)C(=O)C32)cc1 (stereo not given) has z-score reaching or exceeding -3?
Found: satisfied

Lookup: Is it the case that `COc1ccccc1CN1C(=O)c2ccccc2[C@@H](C(=O)NCCCN(C)C)[C@@H]1c1ccc(CO)cc1` has z-score reaching or exceeding -3?
Found: satisfied

Lookup: Is it the case that COC(=O)C1(CC(C)C)C=C2C(=C(C(C)C)C(=O)C2C)CN1 (stereo not given) has z-score reaching or exceeding -3?
Found: satisfied

Source of measurements: PubChem BioAssay
